Kindly state log10(IC50) for each of the entries shown.
- assayed target: IMP-1 (Serratia marcescens)
- Sequence (P52699 whole entry, looked up): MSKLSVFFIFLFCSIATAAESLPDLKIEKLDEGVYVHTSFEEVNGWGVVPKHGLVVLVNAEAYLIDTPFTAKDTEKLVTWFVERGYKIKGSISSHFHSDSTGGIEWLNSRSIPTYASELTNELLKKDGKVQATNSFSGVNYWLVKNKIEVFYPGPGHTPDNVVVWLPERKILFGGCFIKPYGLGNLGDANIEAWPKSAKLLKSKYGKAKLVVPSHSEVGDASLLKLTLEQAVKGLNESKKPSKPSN
- assay remarks: biochemical
- Assay type: biochemical
- condition parameters: IMP-1 enzyme, CCF2-FA fluorescence assay; read-out: IMP-1 IC50
Values below are the log10 of the recorded IC50, with nM as the unit.

Request: Quick check: log10(IC50) of NS(=O)(=O)c1cccc(-c2ccc(CN3CCOCC3)cc2)c1-c1nnn[nH]1 [Example 341] ?
Result: 1.34

Request: Quick check: log10(IC50) of NS(=O)(=O)c1cccc(-c2ccc(CNCC(=O)NO)cc2)c1-c1nnn[nH]1 [Example 330] ?
Result: 2.07

Request: Quick check: log10(IC50) of CN(C)C1CCC(NCc2ccc(-c3cccc(S(N)(=O)=O)c3-c3nnn[nH]3)cc2)CC1 (centres unmarked) [Example 355] ?
Result: 2.67

Request: Quick check: log10(IC50) of C[C@H](O)c1nc(-c2ccc(-c3cccc(S(N)(=O)=O)c3-c3nn[nH]n3)cc2)no1 [Example 251] ?
Result: 1.63

Request: Quick check: log10(IC50) of NS(=O)(=O)c1cccc(-c2ccc(CNC(CO)CO)cc2)c1-c1nnn[nH]1 [Example 374] ?
Result: 2.42

Request: Quick check: log10(IC50) of CC(CC(=O)O)NCc1ccc(-c2cccc(S(N)(=O)=O)c2-c2nnn[nH]2)cc1 (centres unmarked) [Example 344] ?
Result: 2.38

Request: Quick check: log10(IC50) of Cl.Cl.NC1(c2ccc(-c3cccc(S(N)(=O)=O)c3-c3nn[nH]n3)cc2)CCNCC1 [Example 283, dihydrochloride] ?
Result: 2.70

Request: Quick check: log10(IC50) of NS(=O)(=O)c1nccc(-n2cnc3ccccc32)c1-c1nn[nH]n1 [Example 246] ?
Result: 3.45
